Cited source: ChEMBL document CHEMBL1201862

# maps each entry to its GI50
# Test system: KM-20L2
# EXPERIMENTAL DETAILS: NCI tumour cell line growth inhibition, 48 h
Activity calls are given as the source filed them. Cut-off read from the data, not from the text of the source: active = GI50 up to about 1.1 µM and inactive = higher.
READOUT NAME: GI50

>>> value_observed("CCSC(SCC)=C1C(=O)N(c2ccccc2)N=C1C")
"16.8 µM (inactive)"
>>> value_observed("Cc1cc(O)c2c(c1)OC1(C)CCC3C(C)(C)CCCC34COC2C14 (stereo unspecified)")
"16.6 µM (inactive)"
>>> value_observed("CCC(C)(C)NS(=O)(=O)c1ccccc1")
"> 100 µM (inactive)"
>>> value_observed("C[C@]12CCCC(=O)C1C[C@H](C(=O)O)CC2 (stereo partly specified)")
"> 100 µM (inactive)"
>>> value_observed("O=C1C(NCCO)=C(N2CC2)C(=O)C(NCCO)=C1N1CC1")
"> 100 µM (inactive)"
>>> value_observed("O=C(c1ccccc1)c1nc2ccc(Cl)cc2c2c1CCCO2")
"> 100 µM (inactive)"
>>> value_observed("c1ccc(-c2nnc(-c3nsc4ccccc34)o2)cc1")
"> 100 µM (inactive)"
>>> value_observed("NC(=S)NNC(=O)/C(=C/c1ccc(/C=C(\\NC(=O)c2ccccc2)C(=O)NNC(N)=S)cc1)NC(=O)c1ccccc1")
"> 100 µM (inactive)"
>>> value_observed("Cn1c(=O)nc2n(-c3ccc(Cl)cc3)c3ccc(Cl)cc3nc-2c1=O")
"4.88 µM (inactive)"
>>> value_observed("CCCC(OCC)(OCC)OCC")
"> 100 µM (inactive)"
>>> value_observed("Cc1cc(C=O)c2c(=O)c3c(O)ccc(/C=C/C(C)C)c3oc2c1")
"> 100 µM (inactive)"
